target: CDK2 (Homo sapiens); construct: endogenous in cells; host or cells: MDA-MB-231; assay: CDK protein degradation activity (Western blotting), CDK2; assay type: cell-based; settings: MDA-MB-231 cells, 10 μM, 16 hours, Western blot
READOUT TYPE: Enzyme degradation CDK2 (% remaining) @ 10 μM (%)

[
  {
    "MOLECULE": "Cc1cccc(C(=O)N[C@H]2C[C@@H](n3cnc4c(Nc5ccc(N6CCN(C7CC8(CCN(C(=O)C9CN(c%10ccc%11c(c%10)C(=O)N(C%10CCC(=O)NC%10=O)C%11=O)C9)CC8)C7)CC6)cc5)ncnc43)C2)n1 (stereo partly shown) [Compound 387]",
    "UNITS": "%",
    "VAL": 40
  },
  {
    "MOLECULE": "O=C1CC[C@H](N2C(=O)c3cc(F)c(N4CCC(C(=O)N5CCC(CN6CCN(c7ccc(Nc8ncnc9c8ncn9[C@H]8C[C@@H](NC(=O)c9cccc(C(F)(F)F)n9)C8)cc7)CC6)CC5)CC4)cc3C2=O)C(=O)N1 [Compound 471]",
    "UNITS": "%",
    "VAL": 40
  },
  {
    "MOLECULE": "O=C1CC[C@H](N2C(=O)c3cccc(NCC(=O)N4CCC5(CC(N6CCN(c7ccc(Nc8ncnc9c8ncn9C8CC(NC(=O)Cc9ccccc9)C8)cc7)CC6)C5)C4)c3C2=O)C(=O)N1 (stereo partly shown) [Compound 263]",
    "UNITS": "%",
    "VAL": 40
  },
  {
    "MOLECULE": "Cc1cccc(C(=O)N[C@H]2C[C@H](n3cnc4c(NCC5CCN(CC6CCN(C(=O)CNc7cccc8c7C(=O)N(C7CCC(=O)NC7=O)C8=O)CC6)CC5)ncnc43)C2)n1 (stereo partly shown) [Compound 75]",
    "UNITS": "%",
    "VAL": 30
  },
  {
    "MOLECULE": "O=C1CC[C@H](n2nnc3ccc(N4CCC(CN5CCC(CCNc6ncnc7c6ncn7C6CC(NC(=O)Cc7ccccc7)C6)CC5)CC4)cc3c2=O)C(=O)N1 (stereo partly shown) [Compound 410]",
    "UNITS": "%",
    "VAL": 20
  },
  {
    "MOLECULE": "O=C1CC[C@H](N2C(=O)c3ccc(NCC(=O)N4CCC(CC(=O)N5CCN(c6ccc(Nc7ncnc8c7ncn8C7CC(NC(=O)Cc8ccccc8)C7)cc6)CC5)CC4)cc3C2=O)C(=O)N1 (stereo partly shown) [Compound 213]",
    "UNITS": "%",
    "VAL": 50
  },
  {
    "MOLECULE": "Cc1cccc(C(=O)NC2CC(n3cnc4c(Nc5ccc(N6CCN(C7CC8(CCN(C(=O)C9CCN(c%10ccc%11c(c%10)C(=O)N([C@H]%10CCC(=O)NC%10=O)C%11=O)CC9)CC8)C7)CC6)cc5)ncnc43)C2)n1 (stereo partly shown) [Compound 403]",
    "UNITS": "%",
    "VAL": 90
  },
  {
    "MOLECULE": "O=C(CNc1ccc2c(c1)C(=O)N(C1CCC(=O)NC1=O)C2=O)NC[C@H]1CC[C@H](CN2CCN(c3ccc(Nc4ncnc5c4ncn5[C@H]4C[C@@H](NC(=O)Cc5ccccc5)C4)cc3)CC2)CC1 (stereo partly shown) [Compound 220]",
    "UNITS": "%",
    "VAL": 60
  },
  {
    "MOLECULE": "O=C1CC[C@H](n2nnc3ccc(N4CCC(CN5CCN(c6ccc(Nc7ncnc8c7ncn8C7CC(NC(=O)c8cccc(Cl)n8)C7)cc6)CC5)CC4)cc3c2=O)C(=O)N1 (stereo partly shown) [Compound 417]",
    "UNITS": "%",
    "VAL": 0
  },
  {
    "MOLECULE": "O=C1CC[C@H](N2C(=O)C=C(N3CCC(C(=O)N4CCC(CN5CCN(c6ccc(Nc7ncnc8c7ncn8[C@H]7C[C@@H](NC(=O)Cc8ccccc8)C7)cc6)CC5)CC4)CC3)C2=O)C(=O)N1 [Compound 189]",
    "UNITS": "%",
    "VAL": 40
  },
  {
    "MOLECULE": "Cc1cccc(C(=O)N[C@H]2C[C@@H](n3cnc4c(NC5CCN(CCCN6CCN(c7ccc8c(c7)C(=O)N([C@H]7CCC(=O)NC7=O)C8=O)CC6)CC5)ncnc43)C2)n1 (racemic) [Compound 41]",
    "UNITS": "%",
    "VAL": 70
  },
  {
    "MOLECULE": "Cc1cccc(C(=O)NC2CC(n3cnc4c(Nc5ccc(N6CCN(CCC7CCN(c8cc9c(cc8F)C(=O)N([C@H]8CCC(=O)NC8=O)C9=O)CC7)CC6)cc5)ncnc43)C2)n1 (stereo partly shown) [Compound 381]",
    "UNITS": "%",
    "VAL": 20
  },
  {
    "MOLECULE": "O=C1CC[C@H](N2C(=O)c3cc(F)c(N4CCC(C(=O)N5CCC(CN6CCN(c7ccc(Nc8ncnc9c8ncn9C8CC(NC(=O)c9cccc(F)n9)C8)cc7)CC6)CC5)CC4)cc3C2=O)C(=O)N1 (stereo partly shown) [Compound 468]",
    "UNITS": "%",
    "VAL": 40
  }
]
